test: Plasma levels in dogs after administration in food-mixed pellets; format: in vivo; settings: dog, oral, 100 mg/kg, food-mixed pellets, 100 mg/Kg, acute, read-out: plasma rate
VALUE TYPE: concentration at 1 h (µg/mL)

COMPOUND: O=C(O)/C(O)=C/c1c[nH]c2ccccc12 [3-IPA ENOL, enol tautomer of 3-indolylpyruvic acid]
VALUE TYPE: concentration at 1 h
MEASURED NUMBER: 106

====

assay: Plasma levels in dogs after administration in food-mixed pellets; assay type: in vivo; details: dog, oral, 285 mg/kg, acute, read-out: plasma concentration

SUBSTANCE SMILES: O=C(O)/C(O)=C/c1c[nH]c2ccccc12
RESULT UNIT: µg/mL
concentration at 1 h: 136
